Molecular target: cathepsin D (Bos taurus)
Construct: from tissue; host or cells: bovine spleen
Sequence (P80209 45-390): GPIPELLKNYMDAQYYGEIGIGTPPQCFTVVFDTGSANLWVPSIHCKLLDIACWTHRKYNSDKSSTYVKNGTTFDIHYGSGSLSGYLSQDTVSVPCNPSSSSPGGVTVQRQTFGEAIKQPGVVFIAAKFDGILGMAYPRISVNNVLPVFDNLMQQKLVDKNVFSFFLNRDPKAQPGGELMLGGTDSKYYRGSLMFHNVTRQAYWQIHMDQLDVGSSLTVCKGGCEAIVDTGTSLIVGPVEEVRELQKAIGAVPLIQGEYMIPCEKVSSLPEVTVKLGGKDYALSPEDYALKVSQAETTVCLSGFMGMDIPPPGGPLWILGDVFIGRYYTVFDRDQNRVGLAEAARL
Experiment: Inhibition of cathepsin D (CTD)
Format: biochemical, bovine
Conditions: cathepsin D, pH 3.2, 10 minute preincubation, 30° C.; read-out: IC50 CTD
pIC50: −log10 of the molar value.
readout name: pIC50

CC1=C(C(=O)OC(c2ccccc2)c2ccccc2)N2C(=O)[C@H](Cl)[C@H]2S(=O)(=O)C12CC2(c1ccccc1)c1ccccc1 (single isomer, unassigned) [Example 1]: < 4.30

Recorded pIC50 for CO[C@H]1C(=O)N2C(C(=O)OC(c3ccccc3)c3ccccc3)=C(C)C3(CC3(c3ccccc3)c3ccccc3)S(=O)(=O)[C@H]12 (stereo partly drawn) [Example 9] , please?
< 5.08

Thanks! And CC1=C(C(=O)OC(C)(C)C)N2C(=O)[C@H](Br)[C@H]2S(=O)(=O)C12CC2(c1ccccc1)c1ccccc1 (stereo partly drawn) [Example 3] ?
< 4.30

# repeat for CO[C@H]1C(=O)N2C(C(=O)OCC(Cl)(Cl)Cl)=C(C)C3(CC3(c3ccccc3)c3ccccc3)S(=O)(=O)[C@H]12 (stereo partly drawn) [Example 8]
< 5.00

Would you kindly repeat that for CC1=C(C(=O)N2CCCC2)N2C(=O)[C@H](Br)[C@H]2S(=O)(=O)C12CC2(c1ccccc1)c1ccccc1 (stereo partly drawn) [Example 6] ?
< 5.01

Lookup CO[C@H]1C(=O)N2C(C(=O)N3CCCC3)=C(C)C3(CC3(c3ccccc3)c3ccccc3)S(=O)(=O)[C@H]12 (stereo partly drawn) [Example 10]
< 5.00

Same thing, different compound: CCOC(=O)C1CC12C(C)=C(C(=O)OC(c1ccccc1)c1ccccc1)N1C(=O)[C@H](Br)[C@H]1S2(=O)=O (stereo partly drawn) [Example 13 (1)]
< 4.30

* * *

Biological target: trypsin (Bos taurus)
Construct: from tissue; host or cells: bovine pancreas
Sequence (P00760 24-246): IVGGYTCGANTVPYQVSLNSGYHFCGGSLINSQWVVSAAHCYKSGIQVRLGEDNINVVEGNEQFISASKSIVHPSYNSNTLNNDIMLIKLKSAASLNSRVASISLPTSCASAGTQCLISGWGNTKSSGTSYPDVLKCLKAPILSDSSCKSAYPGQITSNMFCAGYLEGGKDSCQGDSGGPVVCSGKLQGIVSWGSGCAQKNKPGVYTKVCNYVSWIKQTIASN
Assay: Inhibition of trypsin (TRY)
Format: biochemical, bovine
pIC50: −log10 of the molar value.
readout name: pIC50

Example molecules with recorded pIC50:
CC1=C(C(=O)OC(c2ccccc2)c2ccccc2)N2C(=O)[C@H](Br)[C@H]2S(=O)(=O)C12CC2(c1ccc(F)cc1)c1ccc(F)cc1 (single isomer, unassigned): < 4.40
CO[C@H]1C(=O)N2C(C(=O)OC(c3ccccc3)c3ccccc3)=C(C)C3(CC3(c3ccccc3)c3ccccc3)S(=O)(=O)[C@H]12 (stereo partly drawn): < 5.00

Next item in the queue.
Looking for the measured pIC50 of CC1=C(C(=O)OC(c2ccccc2)c2ccccc2)N2C(=O)[C@H](Br)[C@H]2S(=O)(=O)C12CC2(c1ccc(Cl)cc1)c1ccc(Cl)cc1 (single isomer, unassigned) , can you help?
4.26

* * *

Target: porcine pancreatic elastase (Sus scrofa, UniProt P00772)
Sequence (P00772 27-266): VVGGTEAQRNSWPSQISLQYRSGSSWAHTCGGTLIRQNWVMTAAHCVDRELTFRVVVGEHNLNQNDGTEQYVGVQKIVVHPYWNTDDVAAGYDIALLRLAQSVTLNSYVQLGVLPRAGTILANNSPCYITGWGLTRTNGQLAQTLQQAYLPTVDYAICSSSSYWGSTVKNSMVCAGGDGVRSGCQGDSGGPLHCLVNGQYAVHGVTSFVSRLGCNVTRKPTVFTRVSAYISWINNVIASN
# strict inequality: IC50 < 20 nM yields yes, everything else yields no

CO[C@H]1C(=O)N2C(C(=O)OC(c3ccccc3)c3ccccc3)=C(C)C3(CC3(c3ccccc3)c3ccccc3)S(=O)(=O)[C@H]12 (some centres unmarked): no
CC1=C(C(=O)OC(c2ccccc2)c2ccccc2)N2C(=O)[C@H](Br)[C@H]2S(=O)(=O)C12CC2(c1ccccc1)c1ccccc1 (single isomer, unassigned): yes
CO[C@H]1C(=O)N2C(C(=O)OCC(Cl)(Cl)Cl)=C(C)C3(CC3(c3ccccc3)c3ccccc3)S(=O)(=O)[C@H]12 (some centres unmarked): no
CCOC(=O)C1CC12C(C)=C(C(=O)OC(c1ccccc1)c1ccccc1)N1C(=O)[C@H](Br)[C@H]1S2(=O)=O (some centres unmarked): no

Could you now look at the following compound, please?
Just wondering, is IC50 of CC1=C(C(=O)OC(c2ccccc2)c2ccccc2)N2C(=O)[C@H](Br)[C@H]2S(=O)(=O)C12CC2(c1ccc(Cl)cc1)c1ccc(Cl)cc1 (single isomer, unassigned) below 20 nM?
no
